# testedSystem: human indoleamine 2,3-dioxygenase (hIDO) (Homo sapiens, UniProt P14902)
# Sequence (P14902 whole entry): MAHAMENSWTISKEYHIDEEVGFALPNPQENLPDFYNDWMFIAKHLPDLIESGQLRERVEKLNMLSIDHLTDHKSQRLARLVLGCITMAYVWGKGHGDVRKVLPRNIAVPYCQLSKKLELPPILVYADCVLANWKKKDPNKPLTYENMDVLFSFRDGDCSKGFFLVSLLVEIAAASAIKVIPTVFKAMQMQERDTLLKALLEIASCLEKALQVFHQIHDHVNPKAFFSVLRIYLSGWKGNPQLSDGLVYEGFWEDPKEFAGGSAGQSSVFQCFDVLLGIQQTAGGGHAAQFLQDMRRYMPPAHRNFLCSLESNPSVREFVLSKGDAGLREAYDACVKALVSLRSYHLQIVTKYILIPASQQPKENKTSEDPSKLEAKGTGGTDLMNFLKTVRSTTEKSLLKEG
# assayInfo: hIDO enzyme activity in solution studies (binding to the Si site)
# Assay type: biochemical
# studyConditions: uncompetitive inhibition of hIDO by binding to the Si site
measuredEndpoint: pKi
Here pKi is given on a logarithmic scale as minus log10 of the concentration in mol/L.

### Prompt // query pKi value for entry `CO[C@@]12[C@H](COC(N)=O)C3=C(C(=O)C(C)=C(N)C3=O)N1C[C@@H]1N[C@@H]12`
### Response 4.60

Numbers sourced from patent US20190304569A1.
